# protocol details: ATG_TGFb_CIS: Attagene CIS-FACTORIAL HepG2 Assay for human Transforming Growth Factor (TGF) (AID 2282967)
# condition summary: HepG2 Attagene CIS TGFb reporter, mRNA transcription; actives raise or lower the signal
Active and inactive are the calls of the source. The calls were made as follows: active = hit-call score of the fitted dose curve at least 0.9, where 1 is the maximum; inactive = score below 0.9.
Respond with a class label; see t for active, f for inactive

NCCNc1cccc2ccccc12
f
CCCC[P+](CCCC)(CCCC)CCCC
f
C1CCOC1
f
CN(C)c1ccncc1
f
C=C(C)C(=O)OCCOC1CC2CC1C1C=CCC21 (configuration not stated)
f
CCCCCCCCCCCC(=O)OC[C@@H](O)[C@H]1OC[C@H](O)[C@H]1O
f
Cc1cc(=O)oc2cc(N(C)C)ccc12
f
CCCCCCC(O)CCCCCCCCCCC(=O)O (configuration not stated)
f

So what was the verdict on CCCCCCCCCCCCCC(=O)OCC(O)CO (configuration not stated) in this test?
f

So what was the verdict on `O=C(O)CCCCCCCCCCCC(=O)O` in this test?
f

So what was the verdict on `CCCCCCOCCOCCO` in this test?
f

So what was the verdict on `CCc1cc(Cc2cc(CC)cc(C(C)(C)C)c2O)c(O)c(C(C)(C)C)c1` in this test?
f

So what was the verdict on `O=[N+]([O-])c1cccc(Cl)c1` in this test?
f

So what was the verdict on `Cc1ccc(S(N)(=O)=O)cc1` in this test?
f

So what was the verdict on `CC(=O)CC(=O)Nc1ccc(C)cc1C` in this test?
f

---

# Read-out: E-selectin (Homo sapiens)
# protocol details: BSK_SAg_Eselectin: BioMAP Diversity Plus: SAg Assay for Eselectin Biomarker Activity (AID 2283091)
# condition summary: primary human HUVEC with PBMC; actives raise or lower the signal
Calls of active or inactive are those of the source. The calls were made as follows: active = hit-call score of the fitted dose curve at least 0.9, where 1 is the maximum; inactive = score below 0.9.
Respond with a class label; see 1 (yes) (active), 0 (no) (inactive)

Cc1cc(CCC(=O)OCCOCCOCCOC(=O)CCc2cc(C)c(O)c(C(C)(C)C)c2)cc(C(C)(C)C)c1O
0 (no)
CC(C)(N=C=O)c1cccc(C(C)(C)N=C=O)c1
0 (no)
C=C(C)C(=O)OCCOCCOCCOC(=O)C(=C)C
0 (no)
Clc1cc(Cl)c(-c2c(Cl)c(Cl)cc(Cl)c2Cl)cc1Cl
1 (yes)
O=CN1CCOCC1
0 (no)

Consider the record given below.
So what was the verdict on `c1ccc(Oc2ccccc2)cc1` in this test?
0 (no)

---

# Read-out: Collagen I, COL1A1 (gene 1277)
# protocol details: BSK_MyoF_CollagenI: BioMAP Diversity Plus: MyoF Assay for Collagen I Biomarker Activity (AID 2284238)
# condition summary: primary human lung fibroblasts
Active and inactive are the calls of the source. The calls were made as follows: active = hit-call score of the fitted dose curve at least 0.9, where 1 is the maximum; inactive = score below 0.9.
Respond with a class label; see y (active), n (inactive)

Solved entries (count: 3):
CCCCN(CCCC)C(=O)N(CCCC)CCCC
y
CCCCCC(C=O)=Cc1ccccc1
n
Cc1cc(CCC(=O)OCCOCCOCCOC(=O)CCc2cc(C)c(O)c(C(C)(C)C)c2)cc(C(C)(C)C)c1O
n

So what was the verdict on `IC(I)I` in this test?
n

So what was the verdict on CCC(C)c1cc([N+](=O)[O-])cc([N+](=O)[O-])c1OC(=O)OC(C)C (stereo not drawn) in this test?
y

So what was the verdict on `COc1ccc(CCN2CCC(Nc3nc4ccccc4n3Cc3ccc(F)cc3)CC2)cc1` in this test?
y

---

# protocol details: BSK_3C_SRB: Viability Assessment in the BioMAP Diversity Plus: 3C Assay (AID 2283023);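 also: cells read 24 h after compound dosing; fitted both ways against DMSO so a hit may be signal rise or drop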
# condition summary: primary human endothelial cells (HUVEC)
Calls of active or inactive are those of the source. The calls were made as follows: active = hit-call score of the fitted dose curve at least 0.9, where 1 is the maximum; inactive = score below 0.9.
outcome measure: AC50

Here is how some compounds turned out for AC50.
CN(C)C(=S)SC(=S)N(C)C
19.9 µM (active)
CC1(C)C2=CCCC(C)(C)[C@]23CC[C@H]1C3
30.4 µM (active)
CC(=O)c1c(C)c([N+](=O)[O-])c(C(C)(C)C)c([N+](=O)[O-])c1C
inactive
CC(C)(N=C=O)c1cccc(C(C)(C)N=C=O)c1
inactive
C[C@@H]1CCN(C(=O)[C@H](CCCN=C(N)N)NS(=O)(=O)c2cccc3c2NC[C@H](C)C3)[C@@H](C(=O)O)C1
inactive

Give the measured AC50 of `C=C(C)C(=O)OCCOCCOCCOCCOC(=O)C(=C)C` .
inactive

Give the measured AC50 of `c1ccc(CCc2ccccc2)cc1` .
30.5 µM (active)

Give the measured AC50 of `IC(I)I` .
inactive

Give the measured AC50 of C1=CC2C3C=CC(C3)C2C1 (centres undefined) .
inactive

---

# protocol details: ATG_TAL_CIS: Attagene CIS-FACTORIAL HepG2 Assay for human TAL Basal Promoter (AID 2282966);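 also: background control endpoint measuring basal TAL promoter reporter mRNA not a specific factor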
# condition summary: HepG2 Attagene cis-factorial TAL promoter reporter; actives raise or lower the signal
The source made the active and inactive calls. The calls were made as follows: active = hit-call score of the fitted dose curve at least 0.9, where 1 is the maximum; inactive = score below 0.9.
Respond with a class label; see 1 (yes) = active, 0 (no) = inactive

Solved entries (count: 4):
CC1(C)COCN1
0 (no)
CC(=O)C1(C)CC2=C(CCCC2(C)C)CC1C (stereo unspecified)
1 (yes)
COc1ccccc1[N+](=O)[O-]
0 (no)
CCCCCC(C)=O
0 (no)

So what was the verdict on `CCc1ccc(O)cc1` in this test?
0 (no)

So what was the verdict on `O=C(Nc1ccc2c(c1)Cc1ccccc1-2)C(F)(F)F` in this test?
0 (no)

So what was the verdict on `Cc1cc(CCC(=O)OCCOCCOCCOC(=O)CCc2cc(C)c(O)c(C(C)(C)C)c2)cc(C(C)(C)C)c1O` in this test?
0 (no)

So what was the verdict on `CCOCCOCCOCC` in this test?
0 (no)

So what was the verdict on `COC(C)(C)CC(C)=O` in this test?
0 (no)

So what was the verdict on `BrCc1cccc(Oc2ccccc2)c1` in this test?
0 (no)

So what was the verdict on `CCOC(=O)c1ccc(N)cc1` in this test?
0 (no)

So what was the verdict on `C=CC(=C)CCCC(C)(C)OC(C)=O` in this test?
0 (no)

So what was the verdict on `COC(=O)c1ccc([N+](=O)[O-])cc1` in this test?
0 (no)

---

# protocol details: ATG_MRE_CIS: Attagene CIS-FACTORIAL HepG2 Assay for human Metal Responsive Element (MRE) (AID 2282954)
# condition summary: HepG2 MRE cis-reporter transcription, Attagene multiplex; actives raise or lower the signal
Active and inactive are the calls of the source. Rule for the calls: active = hit-call score of the fitted dose curve at least 0.9, where 1 is the maximum; inactive = score below 0.9.
outcome measure: AC50

CC(=O)CC(=O)Nc1ccc(C)cc1C
inactive
Clc1cc(Cl)c(-c2c(Cl)c(Cl)cc(Cl)c2Cl)cc1Cl
29.1 µM (active)
O=C(CC(=O)c1ccccc1)c1ccccc1
136 µM (active)
Cc1ccc(C)o1
inactive
CCCCN(CCCC)C(=O)N(CCCC)CCCC
8.86 µM (active)
CC(C=O)Cc1ccc(C(C)(C)C)cc1 (configuration not stated)
inactive
CCCCCCCCCCCCCCN(CCO)CCO
inactive
COC(C)(C)CC(C)=O
inactive

Give the measured AC50 of O=C1NC2NC(=O)NC2N1 (configuration not stated) .
inactive

Give the measured AC50 of `O=[N+]([O-])c1ccc(O)cc1C(F)(F)F` .
61.1 µM (active)

Give the measured AC50 of `CC(C)c1ccccc1O` .
inactive

Give the measured AC50 of `CC1(C)C(=O)N(Cl)C(=O)N1Br` .
inactive

Give the measured AC50 of `CC/C=C\CCOC(=O)CC` .
inactive

Give the measured AC50 of CC(C)C(OC(=O)c1ccccc1)C(C)(C)COC(=O)c1ccccc1 (configuration not stated) .
inactive

---

# Read-out: Macrophage colony-stimulating factor (MCSF), CSF1 (gene 1435)
# protocol details: BSK_hDFCGF_MCSF: BioMAP Diversity Plus: hDFCGF Assay for Macrophage colony-stimulating factor (MCSF) Biomarker Activity (AID 2283060)
# condition summary: primary human foreskin fibroblasts; actives raise or lower the signal
Activity calls are given as the source filed them. The calls were made as follows: active = hit-call score of the fitted dose curve at least 0.9, where 1 is the maximum; inactive = score below 0.9.
outcome measure: AC50

CN(C)C(=O)Nc1ccc(Oc2ccc(Cl)cc2)cc1
inactive
CC(C=O)Cc1ccc(C(C)(C)C)cc1 (configuration not stated)
29.5 µM (active)
C=C(C)C(=O)OCCOCCOCCOCCOC(=O)C(=C)C
inactive
CC(=O)C1(C)CC2=C(CCCC2(C)C)CC1C (configuration not stated)
10.9 µM (active)
IC(I)I
inactive
C1=CC2C3C=CC(C3)C2C1 (configuration not stated)
inactive
COc1ccc(OC)c(N=Nc2c(O)ccc3ccccc23)c1
5.74 µM (active)
O=CN1CCOCC1
inactive
Oc1c(Cl)cc(Cl)c(Cl)c1Cc1c(O)c(Cl)cc(Cl)c1Cl
1.58 µM (active)
COc1ccc(CCN2CCC(Nc3nc4ccccc4n3Cc3ccc(F)cc3)CC2)cc1
7.49 µM (active)

Give the measured AC50 of `C=C(C)[C@H]1CC=C(C)C(=O)C1` .
inactive

Give the measured AC50 of `CC(C)(N=C=O)c1cccc(C(C)(C)N=C=O)c1` .
inactive

Give the measured AC50 of C=CC(C)(O)CCC=C(C)C (configuration not stated) .
inactive

Give the measured AC50 of CCC(C)c1cc([N+](=O)[O-])cc([N+](=O)[O-])c1OC(=O)OC(C)C (configuration not stated) .
6.2 µM (active)

Give the measured AC50 of `CS(=O)(=O)c1ccc(C2=C(c3ccccc3)C(=O)OC2)cc1` .
inactive

Give the measured AC50 of `c1ccc(Oc2ccccc2)cc1` .
inactive

Give the measured AC50 of `CC(C)(C)CC(C)(C)c1ccc(OCCOCC[N+](C)(C)Cc2ccccc2)cc1` .
6.64 µM (active)
